FYI, the data here is from ChEMBL document CHEMBL4295262.

procedureSummary: Electrical activity assay on cell lines treated with a given drug. DMSO was used as a vehicle and a control, unblinded dofetilide was used as a control.
recordedConditions: human, ipsc-cm, 1 µM
Consider the following compounds and their measured FPDc readings.

Cc1cccc(C)c1OCC(C)N (configuration not stated)
77.46

Recorded FPDc for CC(C)(C)c1ccc(C(O)CCCN2CCC(C(O)(c3ccccc3)c3ccccc3)CC2)cc1 (configuration not stated) , please?
63.51

Recorded FPDc for CC(C)COCC(CN(Cc1ccccc1)c1ccccc1)N1CCCC1 (configuration not stated) , please?
78.3

Recorded FPDc for C[S+](C)[O-] [DIMETHYL SULFOXIDE] , please?
70.37

Recorded FPDc for "COC(=O)C1=C(C)NC(C)=C(C(=O)OC)C1c1ccccc1[N+](=O)[O-]" , please?
21.94
